Test: Cmax in Wistar rat at 10 mg/kg, po and 1 mg/kg, iv
Type: ADME, organism-based
Settings: in vivo

| COMPOUND STRING | UNITS SYMBOL | Cmax |
| --- | --- | --- |
| O=C(O)Cn1c2c(c3ccccc31)CN(C(=O)c1ccccc1)CC2 | ng/mL | 600 |
| N#C/C(=C\c1cn(CC(=O)O)c2ccccc12)C(=O)N1CCCc2ccccc21 | ng/mL | 213 |

----------
// values below are reported remaining at 1 h
Assay: Stability in simulated gastric fluid after 1hr by LC/MS analysis
Format: physicochemical
Conditions: read-out: Stability

| COMPOUND STRING | remaining at 1 h / % |
| --- | --- |
| O=C(O)Cn1c2c(c3ccccc31)CN(C(=O)c1ccccc1)CC2 | 100 |
| N#C/C(=C\c1cn(CC(=O)O)c2ccccc12)C(=O)N1CCCc2ccccc21 | 93 |
